experiment: Toxicity in treated gerbils (deaths or significant weight loss); format: in vivo; set-up: key: +: Toxicity is indicated for those groups having one or more animals expired; settings: single oral dose of 50 mg/kg, groups of 3
Endpoint label: Toxicity

Here's what some known entries look like.
1) O=C1O/C(=C\c2ccc(Cl)cc2)C(O)=C1c1ccc(Cl)cc1 | +
2) N#Cc1ccc(C2=C(O)C(=Cc3ccc(-c4ccc(Cl)cc4)cc3)OC2=O)cc1 | +
3) N#Cc1ccc(C2=C(O)/C(=C/c3ccc(-c4ccc(C#N)cc4)cc3)OC2=O)cc1 | +
4) O=C1O/C(=C\c2ccc(-c3ccccc3)cc2)C(O)=C1c1cc(C(F)(F)F)cc(C(F)(F)F)c1 | +
5) O=C1O/C(=C\c2ccc(-c3ccc(Cl)cc3)cc2)C(O)=C1c1ccc(Cl)cc1 | +
6) O=C1OC(=Cc2ccc(Cl)c(Cl)c2)C(O)=C1c1ccc(OC(F)(F)F)cc1 (mixture of isomers) | +
7) O=C1OC(=Cc2ccc(F)cc2)C(O)=C1c1ccc(C(F)(F)F)cc1 (mixture of isomers) | +

Now for the compound whose Toxicity we want.
**Query** Suppose we examine the compound N#Cc1ccc(C2=C(O)C(=Cc3ccc(OC(F)(F)F)cc3)OC2=O)cc1 (mixture of isomers) ; what Toxicity value has been reported?
**Result** +

Where do these numbers come from? They come from patent US7495027B2.
